molecular target: Heat shock factor protein 1 (Homo sapiens) (UniProt Q00613); assay: ATG_HSE_CIS: Attagene CIS-FACTORIAL HepG2 Assay for human Heat Shock Transcription Factor 1 (HSE) (AID 2282953); conditions: HepG2 HSE cis-reporter, Attagene RNA transcription; actives raise or lower the signal
Sequence (Q00613 whole entry, looked up): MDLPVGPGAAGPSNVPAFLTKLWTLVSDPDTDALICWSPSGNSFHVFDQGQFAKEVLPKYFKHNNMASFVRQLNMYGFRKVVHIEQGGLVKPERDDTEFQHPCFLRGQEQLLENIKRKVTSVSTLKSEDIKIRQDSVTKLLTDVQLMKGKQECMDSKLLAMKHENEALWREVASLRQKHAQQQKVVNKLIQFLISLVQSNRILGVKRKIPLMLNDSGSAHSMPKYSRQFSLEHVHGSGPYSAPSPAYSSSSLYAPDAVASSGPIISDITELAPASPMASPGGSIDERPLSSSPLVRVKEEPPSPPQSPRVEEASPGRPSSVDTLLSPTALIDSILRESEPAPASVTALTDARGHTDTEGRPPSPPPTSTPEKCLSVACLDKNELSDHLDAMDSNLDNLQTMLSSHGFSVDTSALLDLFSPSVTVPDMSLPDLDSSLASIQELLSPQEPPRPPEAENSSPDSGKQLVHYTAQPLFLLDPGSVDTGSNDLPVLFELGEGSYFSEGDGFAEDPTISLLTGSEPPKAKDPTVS
Activity calls are given as the source filed them. Rule for the calls: active = hit-call score of the fitted dose curve at least 0.9, where 1 is the maximum; inactive = score below 0.9.
I would appreciate it if you answered using one of these outcomes: yes for active, no for inactive

[
  {
    "molecule": "Cc1c(C)c([N+](=O)[O-])c(C(C)(C)C)c([N+](=O)[O-])c1C",
    "assigned.class": "no"
  },
  {
    "molecule": "Cn1c([N+](=O)[O-])cnc1COC(N)=O",
    "assigned.class": "no"
  },
  {
    "molecule": "Cc1cc(O)c(Cl)c(C)c1Cl",
    "assigned.class": "no"
  },
  {
    "molecule": "O=C(Oc1ccccc1)c1ccc2ccccc2c1O",
    "assigned.class": "yes"
  },
  {
    "molecule": "COC(=O)c1sccc1S(N)(=O)=O",
    "assigned.class": "no"
  },
  {
    "molecule": "C1CN(SSN2CCOCC2)CCO1",
    "assigned.class": "yes"
  },
  {
    "molecule": "CCN(CCO)c1cccc(C)c1",
    "assigned.class": "no"
  },
  {
    "molecule": "COC(=O)/C=C/C(C)=C\\C=C\\C(C)=C\\C=C\\C=C(C)\\C=C\\C=C(C)\\C=C\\C(=O)O",
    "assigned.class": "no"
  },
  {
    "molecule": "c1ccc(CNCc2ccccc2)cc1",
    "assigned.class": "no"
  },
  {
    "molecule": "NC(=O)c1ccccc1O",
    "assigned.class": "no"
  }
]

Query: GET /call?item= CC(CC=O)CCCC(C)(C)O (configuration not stated) returns the recorded outcome of this test.
Reply: no

Query: Now try CCCCCC/C=C\CCCCCCCC(=O)O .
Reply: no

---

Read-out: Collagen III, COL3A1 (gene 1281)
Assay: BSK_MyoF_CollagenIII: BioMAP Diversity Plus: MyoF Assay for Collagen III Biomarker Activity (AID 2284239)
Conditions: primary human lung fibroblasts
Procedure: BSK_MyoF is a cell-based, multiplexed-readout assay that uses lung fibroblasts, […], with measurements taken at 24 hours after chemical dosing in a microplate: 96-well plate.BSK_MyoF_CollagenIII is an assay component measured in the BSK_MyoF assay. […] The levels of cell surface (or secreted, indicated by the prefix "s") biomarker endpoints were measured by ELISA. […] Plates were read after 6 h.
Activity calls are given as the source filed them. Rule for the calls: active = hit-call score of the fitted dose curve at least 0.9, where 1 is the maximum; inactive = score below 0.9.
I would appreciate it if you answered using one of these outcomes: true (1) (active), false (0) (inactive)

[
  {
    "compound": "C=CCOc1c(Br)cc(Br)cc1Br",
    "assigned.class": "true (1)"
  }
]

Query: GET /call?item= C#CC1(O)CC[C@H]2[C@@H]3CCC4=CCCC[C@@H]4[C@H]3CC[C@@]21C (some centres not stated) returns the recorded outcome of this test.
Reply: true (1)

Query: Now try COc1ccc2nc(N)sc2c1 .
Reply: false (0)

Query: Now try C=CCOCC(O)CCl (configuration not stated) .
Reply: false (0)

Query: Now try COCc1c(C(C)C)nc(C(C)C)c(/C=C/[C@@H](O)C[C@@H](O)CC(=O)O)c1-c1ccc(F)cc1 .
Reply: true (1)

Query: Now try CCO[Si](CCCN=C=O)(OCC)OCC .
Reply: false (0)
